The measured values listed here are drawn from paper PMC12621183.

- System: K562/DOX cells
- method: cells
- Type: cell-based
- conditions: human, 72 h

- molecular.string: "Cc1ccc(NC(=O)c2ccc(CN3CCC(c4ccncc4)CC3)cc2)cc1Nc1nccc(-c2cccnc2)n1"
  measurement.target: "K562/DOX cells"
  unit.text: "µM"
  CC50: 37.5
- molecular.string: "Cc1ccc(NC(=O)c2ccc(CN3CCC(c4ccccn4)CC3)cc2)cc1Nc1nccc(-c2cccnc2)n1"
  measurement.target: "K562/DOX cells"
  unit.text: "µM"
  CC50: 20.3

----------
- Tested on: K562 wild-type cells
- method: cells
- Assay type: cell-based
- conditions: Homo sapiens, K562, 72 h, K562 wild-type, 72 h, Annexin V/7-AAD; read-out: LC50 (the source's name)
CC50 values, listed per item
quantity.measured: CC50 (µM)

- compound: "Cc1ccc(NC(=O)c2ccc(CN3CCC(c4ccncc4)CC3)cc2)cc1Nc1nccc(-c2cccnc2)n1 [Compound 10]"
  quantity.measured: "CC50"
  inequality.operator: ">"
  obs.value: 50
- compound: "Cc1ccc(NC(=O)c2ccc(CN3CCC(n4ccnc4)CC3)cc2)cc1Nc1nccc(-c2cccnc2)n1 [Compound 13]"
  quantity.measured: "CC50"
  inequality.operator: "="
  obs.value: 18.2
- compound: "Cc1ccc(NC(=O)c2ccc(CN3CCC(c4ccccn4)CC3)cc2)cc1Nc1nccc(-c2cccnc2)n1 [Compound 9]"
  quantity.measured: "CC50"
  inequality.operator: "="
  obs.value: 21.8
- compound: "Cc1ccc(NC(=O)c2ccc(CN3CCC(c4ccccc4)CC3)cc2)cc1Nc1nccc(-c2cccnc2)n1 [Compound 7]"
  quantity.measured: "CC50"
  inequality.operator: ">"
  obs.value: 50
- compound: "Cc1ccc(NC(=O)c2ccc(CN3CCC(n4cccc4)CC3)cc2)cc1Nc1nccc(-c2cccnc2)n1 [Compound 12]"
  quantity.measured: "CC50"
  inequality.operator: ">"
  obs.value: 50
- compound: "Cc1ccc(NC(=O)c2ccc(CN3CCC(c4ccc(N)cc4)CC3)cc2)cc1Nc1nccc(-c2cccnc2)n1 [Compound 8]"
  quantity.measured: "CC50"
  inequality.operator: "="
  obs.value: 2.29
- compound: "Cc1ccc(NC(=O)c2ccc(CN3CCC(n4cnnc4)CC3)cc2)cc1Nc1nccc(-c2cccnc2)n1 [Compound 14]"
  quantity.measured: "CC50"
  inequality.operator: ">"
  obs.value: 50
